tested on: SNB-75 CNS; test: NCI-60 one-dose screen, 48 h; settings: 10 µM unless noted
About 83,000 compounds went through this panel and 20% of them were active in at least one assay; those are over-represented in the sample as a whole. The source made the active and inactive calls. The calls were made as follows: active = growth percent below 10; inactive = the rest.
Possible outcomes: active, inactive

[
  {
    "MOLECULE": "O=C1Nc2ccccc2/C1=C\\c1nc(-c2ccccc2F)n2ccccc12",
    "SYSTEM_NAME": "SNB-75 CNS",
    "GROUP_LABEL": "active"
  },
  {
    "MOLECULE": "O=C(Nn1c2c(sc1=NCc1ccccc1)C(=O)c1ccccc1C2=O)c1cc2ccc1CCc1ccc(cc1)CC2",
    "SYSTEM_NAME": "SNB-75 CNS",
    "GROUP_LABEL": "inactive"
  },
  {
    "MOLECULE": "COc1cc(CNS(=O)(=O)c2ccc(C)cc2)ccc1OCc1cn(-c2ccc(Br)cc2)nn1",
    "SYSTEM_NAME": "SNB-75 CNS",
    "GROUP_LABEL": "inactive"
  },
  {
    "MOLECULE": "CCCCC(=O)Nc1ncc(Cc2ccc(Cl)cc2)s1",
    "SYSTEM_NAME": "SNB-75 CNS",
    "GROUP_LABEL": "inactive"
  },
  {
    "MOLECULE": "COc1ccc(OC)c(C(=O)/C=C/c2cc3c(c(OC)c2OC)OCO3)c1",
    "SYSTEM_NAME": "SNB-75 CNS",
    "GROUP_LABEL": "inactive"
  },
  {
    "MOLECULE": "Cc1ccc(C(C(N)=O)C(C(N)=O)c2ccccc2)cc1 (configuration not stated)",
    "SYSTEM_NAME": "SNB-75 CNS",
    "GROUP_LABEL": "inactive"
  },
  {
    "MOLECULE": "Oc1ccc(CCn2c(O)c(/C=C3\\CN=c4ccccc4=N3)sc2=S)cc1",
    "SYSTEM_NAME": "SNB-75 CNS",
    "GROUP_LABEL": "inactive"
  },
  {
    "MOLECULE": "CO[C@H]1/C=C(/C)CCC[C@H](C)[C@H](O)[C@@H](C)C(=O)C(C)(C)[C@@H](O)CC(=O)O[C@@H]1/C(C)=C/c1csc(C)n1",
    "SYSTEM_NAME": "SNB-75 CNS",
    "GROUP_LABEL": "active"
  },
  {
    "MOLECULE": "CC[C@]12C=CCN3CC[C@@]4(c5cc(NC(=O)CCC(=O)OCc6cn(Cc7ccc(F)cc7)nn6)c(OC)cc5N(C)[C@H]4[C@@](O)(C(=O)OC)[C@@H]1OC(C)=O)[C@@H]32",
    "SYSTEM_NAME": "SNB-75 CNS",
    "GROUP_LABEL": "inactive"
  },
  {
    "MOLECULE": "O=C1/C(=C/c2ccc(Cl)c(Cl)c2)CN(C(=O)C(Cl)Cl)C/C1=C\\c1ccc(Cl)c(Cl)c1",
    "SYSTEM_NAME": "SNB-75 CNS",
    "GROUP_LABEL": "active"
  },
  {
    "MOLECULE": "COc1ccc2nc(NC(=O)CSc3nnc4n3S(=O)(=O)c3ccccc3N4C)sc2c1",
    "SYSTEM_NAME": "SNB-75 CNS",
    "GROUP_LABEL": "inactive"
  },
  {
    "MOLECULE": "COc1cc(NC(C)CCCNC(C)C)c2ncccc2c1OC (configuration not stated)",
    "SYSTEM_NAME": "SNB-75 CNS",
    "GROUP_LABEL": "inactive"
  },
  {
    "MOLECULE": "Cc1ccc(-c2csc(NC(=O)CN3CCN(c4cc5c(cc4F)c(=O)c(C(=O)O)cn5C4CC4)CC3)n2)cc1",
    "SYSTEM_NAME": "SNB-75 CNS",
    "GROUP_LABEL": "inactive"
  },
  {
    "MOLECULE": "C=C(C)[C@@H]1CC[C@]2(C)[C@H](CC=C3[C@@H]4[C@H](C)[C@@H](C)CC[C@]4(CO)CC[C@]32C)[C@@]1(C)CCCN",
    "SYSTEM_NAME": "SNB-75 CNS",
    "GROUP_LABEL": "inactive"
  },
  {
    "MOLECULE": "O=C1c2cccnc2C(=O)c2c1c(C(=O)NCCCN1CCCCC1)c1ccccn21",
    "SYSTEM_NAME": "SNB-75 CNS",
    "GROUP_LABEL": "active"
  },
  {
    "MOLECULE": "COc1cc(OC)c2sc(-c3ccc(-n4cncc4-c4ccc(OC)c(OC)c4)cc3)nc2c1",
    "SYSTEM_NAME": "SNB-75 CNS",
    "GROUP_LABEL": "inactive"
  },
  {
    "MOLECULE": "C=C1C(=O)O[C@H]2[C@H]1CC/C(COC(=O)CCSCCC(=O)OC/C1=C/CC[C@@]3(C)O[C@H]3[C@H]3OC(=O)C(=C)[C@@H]3CC1)=C\\CC[C@@]1(C)O[C@@H]21",
    "SYSTEM_NAME": "SNB-75 CNS",
    "GROUP_LABEL": "inactive"
  },
  {
    "MOLECULE": "COC(=O)c1cc(-c2ccc(S(C)(=O)=O)cc2)[nH]c1N/N=C/c1c(Cl)cccc1Cl",
    "SYSTEM_NAME": "SNB-75 CNS",
    "GROUP_LABEL": "inactive"
  },
  {
    "MOLECULE": "CCOC(=O)c1[nH]c(=O)c2c(C)nc(-c3ccccc3)cc2c1O",
    "SYSTEM_NAME": "SNB-75 CNS",
    "GROUP_LABEL": "inactive"
  },
  {
    "MOLECULE": "S=C1CCSC(=S)N1CCCN1C(=S)CCSC1=S",
    "SYSTEM_NAME": "SNB-75 CNS",
    "GROUP_LABEL": "inactive"
  },
  {
    "MOLECULE": "CC/C(=C(/c1ccc(Cl)cc1)c1ccc(OCCN2CCCC2)cc1)c1ccc(OC)cc1",
    "SYSTEM_NAME": "SNB-75 CNS",
    "GROUP_LABEL": "inactive"
  },
  {
    "MOLECULE": "CCOC(=O)c1cc(C(=O)c2cc(OC)c(OC)c(OC)c2)n2ccc(-c3ccncc3)cc12",
    "SYSTEM_NAME": "SNB-75 CNS",
    "GROUP_LABEL": "inactive"
  },
  {
    "MOLECULE": "N#Cc1cccc(F)c1",
    "SYSTEM_NAME": "SNB-75 CNS",
    "GROUP_LABEL": "inactive"
  },
  {
    "MOLECULE": "COC1=CC(c2ccc[nH]2)=N/C1=C\\c1[nH]c(C)c(C(=O)OCc2ccccc2)c1C",
    "SYSTEM_NAME": "SNB-75 CNS",
    "GROUP_LABEL": "active"
  },
  {
    "MOLECULE": "COc1ccc(-c2cn(-c3cc(OC)c(OC)c(OC)c3)c(=O)n2C(C)=O)cc1",
    "SYSTEM_NAME": "SNB-75 CNS",
    "GROUP_LABEL": "inactive"
  },
  {
    "MOLECULE": "CCOC(=O)C(=Cc1cccc(Br)c1)C(=O)OCC",
    "SYSTEM_NAME": "SNB-75 CNS",
    "GROUP_LABEL": "inactive"
  },
  {
    "MOLECULE": "CCSc1nc(NC)c2cc(-c3ccc(C(F)(F)F)cc3)ccc2n1",
    "SYSTEM_NAME": "SNB-75 CNS",
    "GROUP_LABEL": "inactive"
  },
  {
    "MOLECULE": "CN(C)c1ccc(/C=C/C(=O)c2ccc(-n3cc(CN4CCN(c5cc6c(cc5F)c(=O)c(C(=O)O)cn6C5CC5)CC4)nn3)cc2)cc1",
    "SYSTEM_NAME": "SNB-75 CNS",
    "GROUP_LABEL": "inactive"
  },
  {
    "MOLECULE": "C=C1C(=O)O[C@H]2[C@H]1CC/C(COC(=O)NCc1ccc(Cn3c(=O)sn(CCI)c3=O)cc1)=C\\CC[C@@]1(C)O[C@@H]21",
    "SYSTEM_NAME": "SNB-75 CNS",
    "GROUP_LABEL": "inactive"
  },
  {
    "MOLECULE": "CCN(CC)CCOc1ccc(-c2c(-c3ccccc3)c(=O)oc3ccccc23)cc1",
    "SYSTEM_NAME": "SNB-75 CNS",
    "GROUP_LABEL": "inactive"
  },
  {
    "MOLECULE": "C#COc1cccc(Nc2ncnc3ncc(NC(=O)CCl)cc23)c1",
    "SYSTEM_NAME": "SNB-75 CNS",
    "GROUP_LABEL": "inactive"
  },
  {
    "MOLECULE": "Cn1cc(-c2csc(-c3c[nH]c4ccc(Br)cc34)n2)c2cnccc21",
    "SYSTEM_NAME": "SNB-75 CNS",
    "GROUP_LABEL": "active"
  },
  {
    "MOLECULE": "Nc1nc2c([nH]1)c1[nH]c3ccccc3c1c1[nH]c3ccccc3c21",
    "SYSTEM_NAME": "SNB-75 CNS",
    "GROUP_LABEL": "inactive"
  },
  {
    "MOLECULE": "C=CCc1c2c(c(OC)c3ccoc13)C(=O)/C(=C/c1ccccc1OC)O2",
    "SYSTEM_NAME": "SNB-75 CNS",
    "GROUP_LABEL": "inactive"
  },
  {
    "MOLECULE": "O=C1C(Cl)=C(Nc2ccc(O)cc2)C(=O)N1Cc1ccc(Cl)cc1",
    "SYSTEM_NAME": "SNB-75 CNS",
    "GROUP_LABEL": "inactive"
  },
  {
    "MOLECULE": "O=[N+]([O-])C1C(c2ccccc2)C12c1ccccc1-c1ccccc12 (configuration not stated)",
    "SYSTEM_NAME": "SNB-75 CNS",
    "GROUP_LABEL": "inactive"
  },
  {
    "MOLECULE": "CCn1c(=S)[nH]c2c(=O)n(C)c(=O)n(C)c21",
    "SYSTEM_NAME": "SNB-75 CNS",
    "GROUP_LABEL": "inactive"
  }
]
